# System: MCF7
# protocol_description: HRG-induced Akt activation (dPAkt = log2 pAkt/Akt HRG-stimulated minus log2 pAkt/Akt basal) (log2 ratio difference); higher = stronger HRG-induced Akt(T308) phosphorylation
# condition: miRNA mimic concentration 10 nM; time after transfection 72 h; heregulin 10 ng/ml; stimulation time 1 h
Can you tell me HRG-induced Akt activation (log2) for the items I'm about to list?
API doc: respond with a numeric literal and nothing else, no unit.

Inquiry: Can you share its HRG-induced Akt activation (log2)? I mean this sequence: AGGCAGCGGGGUGUAGUGGAUA
Reply text: 1.58

Inquiry: How about UGUAACAGCAACUCCAUGUGGA ?
Reply text: 0.984

Inquiry: Cool, now UGGUAGACUAUGGAACGUAGG
Reply text: 0.953

Inquiry: And the next one, CUAUACAGUCUACUGUCUUUCC ?
Reply text: 1.85

Inquiry: And CUGGGAGAGGGUUGUUUACUCC ?
Reply text: 0.876

Inquiry: # iterate: ACUGGGGGCUUUCGGGCUCUGCGU
Reply text: 1.6

Inquiry: Field entry: UAAUUGCUUCCAUGUUU
Reply text: 1.75

Inquiry: Please give the result for CAUCAUCGUCUCAAAUGAGUCU too.
Reply text: 1.91

Inquiry: Try this sequence too: AAUUGCACGGUAUCCAUCUGUA
Reply text: 1.15

Inquiry: Please answer likewise for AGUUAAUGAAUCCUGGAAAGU
Reply text: 1.46

Inquiry: Same for UUUGUUCGUUCGGCUCGCGUGA
Reply text: 1.23

Inquiry: Now the same for AAAAGUAAUUGCGAGUUUUACC
Reply text: 1.34

Inquiry: Do the same for UGGGGAGCUGAGGCUCUGGGGGUG please
Reply text: 1.74

Inquiry: For UGUUCAUGUAGAUGUUUAAGC then?
Reply text: 1.08

Inquiry: Could you do the same for CAAGCUUGUAUCUAUAGGUAUG , please?
Reply text: 1.59

====

Please respond with reported HRG-induced Akt activation (log2) for every item in the list.
# System: MCF7
# protocol_description: HRG-induced Akt activation (dPAkt = log2 pAkt/Akt HRG-stimulated minus log2 pAkt/Akt basal) (log2 ratio difference); higher = stronger HRG-induced Akt(T308) phosphorylation
# condition: miRNA mimic concentration 10 nM; time after transfection 72 h; heregulin 10 ng/ml; stimulation time 1 h

Inquiry: For the sequence shown here, AUUGACACUUCUGUGAGUAGA , give the reported HRG-induced Akt activation (log2).
Reply text: 1.55

Inquiry: Cool, now AGAGUUGAGUCUGGACGUCCCG
Reply text: 1.98

Inquiry: // next record AAAGACAUAGGAUAGAGUCACCUC
Reply text: 1.9

Inquiry: Another sequence: CAAGAACCUCAGUUGCUUUUGU
Reply text: 1.15

Inquiry: Quick one: CACUGUGUCCUUUCUGCGUAG
Reply text: 1.86

Inquiry: For AUGUAGGGCUAAAAGCCAUGGG then?
Reply text: 1.01

Inquiry: Then this sequence: UACUCCAGAGGGCGUCACUCAUG
Reply text: 1.02

Inquiry: Could you do the same for CUGUUGCCACUAACCUCAACCU , please?
Reply text: 1.07

Inquiry: Now the sequence AGAGGUUGCCCUUGGUGAAUUC
Reply text: 1.6

Inquiry: Then this sequence: UGAGUGUGUGUGUGUGAGUGUGU
Reply text: 2.29

Inquiry: Same for AUGCUGACAUAUUUACUAGAGG
Reply text: 0.706

Inquiry: Do the same for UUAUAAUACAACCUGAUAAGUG please
Reply text: 1.04

Inquiry: Also, AAGUUCUGUUAUACACUCAGGC please.
Reply text: 1.15

Inquiry: Next sequence: UCUCACACAGAAAUCGCACCCGU
Reply text: 1.92

Inquiry: Cool, now CAAAGAGGAAGGUCCCAUUAC
Reply text: 2.01

Inquiry: // same read-out, input: AAUGACACGAUCACUCCCGUUGA
Reply text: 1.48

Inquiry: Also, GCUACUUCACAACACCAGGGCC please.
Reply text: 1.67

Inquiry: Now give it for GUGAGUCUCUAAGAAAAGAGGA too.
Reply text: 1.56

Inquiry: Try this sequence too: ACUCCAUUUGUUUUGAUGAUGGA
Reply text: 1.19

Inquiry: Subsequent entry: ACUCCAGCCCCACAGCCUCAGC
Reply text: 1.84

Inquiry: Entry to check: GUCCGCUCGGCGGUGGCCCA
Reply text: 1.34

Inquiry: Let us now turn to UACUCAGGAGAGUGGCAAUCAC
Reply text: 1.1

Inquiry: Repeat for the following sequence: UCAGCAAACAUUUAUUGUGUGC
Reply text: 1.82

Inquiry: # iterate: AAAAGUGCUUACAGUGCAGGUAG
Reply text: 1.2

Inquiry: Do the same for CAAAAAUCUCAAUUACUUUUGC please
Reply text: 2.04

Inquiry: What about CUGACUGUUGCCGUCCUCCAG ?
Reply text: 1.53

Inquiry: And then CAAAGUUUAAGAUCCUUGAAGU , what is it?
Reply text: 1.08

Inquiry: Cool, now AAGCCCUUACCCCAAAAAGUAU
Reply text: 1.73

Inquiry: Let us now turn to AGACCUGGCCCAGACCUCAGC
Reply text: 1.51

Inquiry: And then UAAGGUGCAUCUAGUGCAGUUAG , what is it?
Reply text: 2.1

Inquiry: Another sequence to check: ACCUGGCAUACAAUGUAGAUUU
Reply text: 1.81

Inquiry: And for UACCCAUUGCAUAUCGGAGUUG ?
Reply text: 1.78

Inquiry: Lookup UGACCGAUUUCUCCUGGUGUUC
Reply text: 2.09

Inquiry: Would you kindly repeat that for UCUAGUAAGAGUGGCAGUCGA ?
Reply text: 1.32

Inquiry: Request: CCCCACCUCCUCUCUCCUCAG
Reply text: 1.28

Inquiry: Consider next the sequence GAGCUUAUUCAUAAAAGUGCAG in the same way.
Reply text: 1.76

Inquiry: Now the same for AGGAAGCCCUGGAGGGGCUGGAG
Reply text: 1.1

Inquiry: Same again, this time with UAAUUUUAUGUAUAAGCUAGU
Reply text: 1.79

Inquiry: And what about the sequence UUGAAAGGCUAUUUCUUGGUC ?
Reply text: 2.39

Inquiry: Also need AACAUUCAUUGUUGUCGGUGGGU , thanks.
Reply text: 2.24

Inquiry: What about GGGAGCCAGGAAGUAUUGAUGU ?
Reply text: 1.82

Inquiry: Further, for UGUAAACAUCCUCGACUGGAAG ?
Reply text: 1.22

Inquiry: Subsequent entry: CUGGAUGGCUCCUCCAUGUCU
Reply text: 1.96

Inquiry: Would you kindly repeat that for UGUGCUUGCUCGUCCCGCCCGCA ?
Reply text: 1.82

Inquiry: Next up: AAUGGAUUUUUGGAGCAGG
Reply text: 2.12

Inquiry: Then what about the sequence ACUGCCCUAAGUGCUCCUUCUGG ?
Reply text: 1.72

Inquiry: Input AGGCGGGGCGCCGCGGGACCGC
Reply text: 1.22

Inquiry: Also UAUAGGGAUUGGAGCCGUGGCG ?
Reply text: 1.04

Inquiry: Next entry: AAAAGUAAUUGCGGUCUUUGGU
Reply text: 1.32

Inquiry: Input UUGGCCACAAUGGGUUAGAAC
Reply text: 1.02

Inquiry: Also ACCCUAUCAAUAUUGUCUCUGC ?
Reply text: 1.33

Inquiry: Please do the same for ACUCAAAACCCUUCAGUGACUU as well.
Reply text: 1.79

Inquiry: What do you get for CCCAGUGUUCAGACUACCUGUUC ?
Reply text: 1.28

Inquiry: Thanks! And AACCAGCACCCCAACUUUGGAC ?
Reply text: 2.3

Inquiry: Next sequence up: UGGAAUGUAAAGAAGUAUGUAU
Reply text: 1.76

Inquiry: Likewise for CUGUACAGGCCACUGCCUUGC ?
Reply text: 1.88

Inquiry: What do you have for CAUCCCUUGCAUGGUGGAGGG ?
Reply text: 1.97

Inquiry: Follow-up entry: UACAGUAUAGAUGAUGUACU
Reply text: 1.39

Inquiry: Let us now turn to ACUCGGCGUGGCGUCGGUCGUG
Reply text: 2.34

Inquiry: Subsequent entry: AAGUGAUCUAAAGGCCUACAU
Reply text: 1.67

Inquiry: Then what about the sequence AUCACAUUGCCAGGGAUUUCC ?
Reply text: 1.12

Inquiry: Also check AAUUGCACUUUAGCAAUGGUGA
Reply text: 1.14

Inquiry: One more sequence: UGCCCUUAAAGGUGAACCCAGU
Reply text: 1.22

Inquiry: Follow-up entry: UUUAGGAUAAGCUUGACUUUUG
Reply text: 1.37

Values from the supplement of paper PMC4314810
